- Test system: Rattus norvegicus
- assay_method_text: Tested in vivo for ability to inhibit PAF-induced hypotension in rats by measuring the drop in mean arterial blood pressure(mmHg) after 3 minutes activity
- Format: functional
Everything with MABP lower than 80 mmHg is label 0; everything else, including exactly 80 mmHg, is label 1.

| molecule | class_assignment |
| --- | --- |
| CO/C(O)=C1\C(C)=NC(C)=C(C(=O)OCCSC)C1C (stereo unspecified) | label 0 |
| CCO/C(O)=C1\C(C)=NC(C)=C(C(=O)OCCSC)C1CC (stereo unspecified) | label 0 |
| CO/C(O)=C1\C(C)=NC(C)=C(C(=O)OCCSc2ccccc2)C1C (stereo unspecified) | label 0 |
| CCCC1C(C(=O)OCCSCC)=C(C)N=C(C)/C1=C(/O)OCC (stereo unspecified) | label 1 |
| CCO/C(O)=C1\C(C)=NC(C)=C(C(=O)OCCSC)C1C (stereo unspecified) | label 1 |
| CCCC1C(C(=O)OCCSC)=C(C)N=C(C)/C1=C(/O)OCC (stereo unspecified) | label 1 |

Query :: Does the molecule CCSCCO/C(O)=C1\C(C)=NC(C)=C(C(=O)OC)C1C (stereo unspecified) have recorded MABP that is 80 mmHg or more?
Result :: label 0

Query :: Further, for CCO/C(O)=C1\C(C)=NC(C)=C(C(=O)OCCSCC)C1C (stereo unspecified) ?
Result :: label 0

Query :: Try this molecule next: CC1=NC(C)=C(C(=O)OCCSc2ccccc2)C(C)/C1=C(\O)OCC1CCCO1 (stereo unspecified)
Result :: label 0

Query :: For CCO/C(O)=C1/C(C)=NC(C)=C(C(=O)OCCSc2ccccc2)C1C (stereo unspecified) then?
Result :: label 0
